Assay: adjuvant arthritis screen (Walz et al.), swelling of the non-injected left hind foot on Day 16
Type: in vivo, male inbred Lewis rats
Conditions: Rattus norvegicus, 384 h, 20 mg./kg. po, daily day -1 through day 15, read-out: Activity Percent Inhibition
measured_endpoint: inhibition in vivo at 20 mg/kg (%)
Please state the figure in %; there is no need to write the unit.

Please look up its inhibition in vivo at 20 mg/kg: CN1CCN(CCCn2c(NC(=O)c3cccc(Cl)c3)nc3cc(C(F)(F)F)ccc32)CC1 [3-Chlorophenyl; CF3; H; drawing 24] 45

Record request: inhibition in vivo at 20 mg/kg value, item Cc1ccc2c(c1)nc(NC(=O)C=Cc1ccc(Cl)cc1)n2CCCN1CCN(C)CC1 [4-Chlorostyryl; CH3; H; drawing 24] 39

inhibition in vivo at 20 mg/kg for CN1CCN(CCCn2c(NC(=O)c3ccc(Cl)cc3)nc3cccnc32)CC1 [4-Chlorophenyl; H; H; drawing 25] ? 26

Which measured inhibition in vivo at 20 mg/kg value corresponds to CN1CCN(CCCn2c(NC(=O)c3ccc(C(F)(F)F)cc3)nc3ccccc32)CC1 [4-Trifluoromethylphenyl; H; H; drawing 24] ? 51

* * *

Answer each item with its documented inhibition in vivo at 20 mg/kg.
Test: adjuvant arthritis screen (Walz et al.), swelling of the non-injected left hind foot on Day 16
Type: in vivo, male inbred Lewis rats
Conditions: Rattus norvegicus, 384 h, 20 mg./kg. po, daily day -1 through day 15, read-out: Activity Percent Inhibition
# number only, unit % dropped from output

For the compound CN1CCN(CCCn2c(NC(=O)c3ccc(Cl)c(Cl)c3)nc3cccnc32)CC1 [3,4-Dichlorophenyl; H; H; drawing 25] , what inhibition in vivo at 20 mg/kg is on record? 41

For the compound shown here, CN1CCN(CCCn2c(NC(=O)c3ccc(C(F)(F)F)cc3)nc3cccnc32)CC1 [4-Trifluoromethylphenyl; H; H; drawing 25] , give the reported inhibition in vivo at 20 mg/kg. 14

I have this compound here, CN1CCN(CCCn2c(NC(=O)c3ccc(C(F)(F)F)cc3)nc3cc(S(=O)(=O)N(C)C)ccc32)CC1 , and I need its recorded inhibition in vivo at 20 mg/kg. 34

Please give the measured inhibition in vivo at 20 mg/kg for this compound: CN1CCN(CCCn2c(NC(=O)c3cccc(C(F)(F)F)c3)nc3cccnc32)CC1 [3-Trifluoromethylphenyl; H; H; drawing 25] 39

If you can, please state the reported inhibition in vivo at 20 mg/kg value of COc1cccc(C(=O)Nc2nc3cccnc3n2CCCN2CCN(C)CC2)c1 [3-Methoxyphenyl; H; H; drawing 25] . 25

Dear colleague, I am looking for the recorded inhibition in vivo at 20 mg/kg of the following compound: CN1CCN(CCCn2c(NC(=O)C=Cc3ccc(Cl)cc3)nc3cc(C(F)(F)F)ccc32)CC1 [4-Chlorostyryl; CF3; H; drawing 24] 6

Tell me the measured inhibition in vivo at 20 mg/kg of COc1cccc(C(=O)Nc2nc3cc(S(=O)(=O)N(C)C)ccc3n2CCCN2CCN(C)CC2)c1 [3-Methoxyphenyl; SO2 N(CH3)2; H; drawing 24] , please. 13

Using the record for Cc1ccc2nc(NC(=O)c3ccccc3)n(CCCN3CCN(C)CC3)c2c1 [Phenyl; H; CH3; drawing 24] , report its inhibition in vivo at 20 mg/kg. 23

Would you mind telling me what inhibition in vivo at 20 mg/kg value was observed for COc1cccc(C(=O)Nc2nc3ccc(C)cc3n2CCCN2CCN(C)CC2)c1 [3-Methoxyphenyl; H; CH3; drawing 24] ? 44

Data request, read-out inhibition in vivo at 20 mg/kg, for CN1CCN(CCCn2c(NC(=O)c3cccc(C(F)(F)F)c3)nc3cc(S(=O)(=O)N(C)C)ccc32)CC1 22

I am curious: what inhibition in vivo at 20 mg/kg value has been reported for CN1CCN(CCCn2c(NC(=O)c3ccc(Cl)cc3)nc3cc(S(=O)(=O)N(C)C)ccc32)CC1 [4-Chlorophenyl; SO2 N(CH3)2; H; drawing 24] ? 18

# get_value(readout='inhibition in vivo at 20 mg/kg', item= CN1CCN(CCCn2c(NC(=O)c3cccc(Cl)c3)nc3cccnc32)CC1 [3-Chlorophenyl; H; H; drawing 25] ) 26
